Tested system: FXIIa (Homo sapiens)
Sequence (P00748 373-615 limits assumed): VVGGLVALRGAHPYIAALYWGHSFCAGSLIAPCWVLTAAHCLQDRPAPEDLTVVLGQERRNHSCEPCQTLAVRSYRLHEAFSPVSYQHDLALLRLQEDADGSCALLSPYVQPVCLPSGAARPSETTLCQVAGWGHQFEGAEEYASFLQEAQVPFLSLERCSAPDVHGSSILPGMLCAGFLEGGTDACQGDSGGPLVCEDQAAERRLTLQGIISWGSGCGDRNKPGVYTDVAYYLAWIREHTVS
Sequence (P00748 20-372 partner limits assumed): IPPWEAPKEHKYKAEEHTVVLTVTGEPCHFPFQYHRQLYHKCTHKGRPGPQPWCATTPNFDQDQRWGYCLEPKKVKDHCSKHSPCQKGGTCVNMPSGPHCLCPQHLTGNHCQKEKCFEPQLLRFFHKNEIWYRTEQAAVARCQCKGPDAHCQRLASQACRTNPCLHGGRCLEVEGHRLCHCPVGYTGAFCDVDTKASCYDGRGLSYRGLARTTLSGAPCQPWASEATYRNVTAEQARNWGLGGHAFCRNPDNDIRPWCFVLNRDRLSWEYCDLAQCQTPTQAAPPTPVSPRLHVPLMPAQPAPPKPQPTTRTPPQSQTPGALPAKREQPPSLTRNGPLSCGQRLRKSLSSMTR
Test summary: Chromogenic assay, FXIIa
Type: biochemical
No end group written: not given here.
Measured quantity: IC50

[
  {
    "Substance": "LSEEPE [LE6, Leu-Ser-Glu-Glu-Pro-Glu]",
    "Measured quantity": "IC50",
    "Reading": "71 µM"
  }
]
